A collection of molecules and their measured IC50
Assay: Inhibition of retinoblastoma susceptibility gene product phosphorylation in human MCF7 cells after 24 hrs
// unit must come after the numeric part

Previously resolved entries follow.
[
  {
    "chemical.structure": "CCCOc1cnc(CNC=C2C(=O)NC(=O)c3ccc(C(C)(C)C)cc32)cc1O",
    "IC50": "200 nM"
  },
  {
    "chemical.structure": "O=C1NC(=O)c2ccc(I)cc2C1=CNCc1ccn(-c2ccoc2)c(=O)c1",
    "IC50": "370 nM"
  }
]

Attention now shifts to the item below.
Answer with the recorded IC50 for the molecule listed here: O=C1NC(=O)c2ccc(I)cc2C1=CNCc1ccc(-c2ccoc2)c(O)c1 610 nM

Data origin, for the record: BindingDB's records for doi:10.1021/jm801026e
